assay: yeast growth modulation, basal conditions, primary screen, YJM789 clinical isolate, OD600, 24 h (AID 1089);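 note: growth of clinical yeast isolate S. cerevisiae YJM 789 seeded 1000 cells per well; test concentration not given here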; conditions: S. cerevisiae YJM789 growth, higher = more signal, called active from +8 up or from −8 down
Class label 1: z-score at least -0.1. Class label 0: z-score below -0.1.

Field: example entries. Status: answers known.
Compound: O=C(NCC(F)(F)F)[C@@H]1c2ccccc2C(=O)N(Cc2ccccc2C(F)(F)F)[C@H]1c1ccc(CO)cc1
Label value: label 0
//
Compound: CCCC[C@@H](O)C1=C(COc2ccccc2)C[C@H]2C(=O)N(C)C(=O)[C@H]2[C@H]1CO
Label value: label 0
//
Compound: O=C1OCC=C[C@H]2OC34C=CCN(c5ccc(Cl)cc5)C(=O)[C@H]3N(CCO)C(=O)[C@@H]4[C@@H]12 (stereo partly drawn)
Label value: label 0

### Prompt Form field: z-score at least -0.1? Entry: COCCOC(=O)N1C(=O)[C@@]2(c3cc(C#CCCO)ccc31)[C@H](C(=O)Nc1nc3ccccc3s1)[C@H]1C(=O)O[C@H](c3ccccc3)[C@H](c3ccccc3)N1[C@@H]2c1ccccc1OCCO
### Response label 1

### Prompt Is the recorded value of z-score equal to or greater than -0.1 for this compound? Cc1ccc(S[C@]2(C(=O)O)CC(=O)N(Cc3cc(C(F)(F)F)cc(C(F)(F)F)c3)[C@@H]2c2ccc(CO)cc2)cc1
### Response label 1

----------
Attribute: z-score
experiment: modulators of HCV replicon luciferase signal, primary screen, HCV replication inhibitor project, Huh7 cells, luciferase reporter (AID 1109); conditions: 48 h, higher = more signal;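 note: huh7 hepatoma cells harbouring a luciferase neomycin HCV replicon reporter; luciferase luminescence as measure of HCV replicon replication; test concentration not given here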
A bare number is all that is needed in reply.

The following compounds have reported results that may help.
Compound: C=C(/C(=C/C[C@@H](OC(C)=O)c1cccc(OCCO)c1)c1cc(C(=O)OC)ccc1OC)C(C)C
z-score: -1.53
//
Compound: O=C(NCCCCCNC(=O)/C(Cc1ccccc1)=N/O)OCc1ccccc1
z-score: -1.24
//
Compound: C=CCC(OC(C)=O)[C@@H]1[C@@H](N(Cc2ccc(-c3cccc(C(F)(F)F)c3)o2)C(=O)c2ccc(C)cc2)c2cc(OCCCO)ccc2N1C(=O)c1ccc2ccccc2c1 (some centres undefined)
z-score: -0.471
//
Compound: C[C@@H]1NC(=O)[C@@]23C(=O)N[C@@H](Cc4ccccc4)C2[C@H](C)[C@@]2(C)O[C@H]2C3/C=C/C/C=C\CNC(=O)[C@@H]2CCCN2C1=O (some centres undefined)
z-score: 0.606
//
Compound: O=c1n(-c2ccccc2)c(=O)n2n1CC(COc1ccccc1)=C([C@H](O)CCc1ccccc1)[C@@H]2CO
z-score: -2.17
//
Compound: COC(=O)c1c2oc(c1C(=O)OC)C(=O)N(C)Cc1cn(nn1)C[C@H](Cc1ccccc1)NC(=O)N[C@H](CO)CC2
z-score: -1.18
//
Compound: COCCOC(=O)N1C(=O)[C@@]2(c3cc(C#Cc4ccc(OC)cc4)ccc31)[C@H](c1ccc(O)cc1)N1[C@H](c3ccccc3)[C@H](c3ccccc3)OC(=O)[C@H]1[C@@H]2C(=O)N1CCCCCCC1
z-score: -0.48
//
Compound: C=CCN1C(=O)[C@@]2(O[C@@H](CCn3cc([C@H](O)c4ccccc4)nn3)[C@H]([Si](C)(C)c3ccc(OC)cc3)[C@H]2C)c2cc(N3CCC3=O)ccc21
z-score: -3.39

Input Cc1cc(C)c(C(O)C2C=CC3C(=O)N(c4ccccc4)C(=O)C3N2Nc2ccc(C(C)C)cc2)c(C)c1 (centres undefined) . Output z-score: 0.437

z-score measured on C[C@]1(C(=O)NC2CC2)c2ccccc2C(=O)N(Cc2ccccc2)[C@H]1c1ccc(CO)cc1 = -0.582

Reported z-score of O=C1O[C@H](c2ccccc2)[C@H](c2ccccc2)N2[C@H]1[C@@H](C(=O)Nc1nc3ccccc3s1)[C@]1(C(=O)Nc3ccc(C#CCCO)cc31)[C@H]2c1ccc(O)cc1 : -0.829

So, COc1ccc(NC(=O)O[C@H]2[C@H](OC(=O)Nc3ccccc3)[C@@H](OC(=O)Nc3ccccc3)[C@@H](OC)O[C@@H]2CO)cc1 ? Its z-score was -3.04

The compound listed as CC(=O)NCCCC[C@@H]1NC(=O)[C@@H]2C[C@H](C(=O)NCCCC[N+](C)(C)C)[C@H](c3ccc(O)cc3)N2C1=O shows z-score equal to -0.307

// z-score lookup, compound = COCCCNC(=O)[C@@]1(Cc2ccccc2N=[N+]=[N-])N=C(c2ccc(OCCCO)cc2)O[C@H]1c1ccccc1 , result: -1.54
